Target: T1, extracellular domain (ECD) of human αKlotho, amino acids E34-S981 with C-terminal 6-His tag (R&D Systems … (human, UniProt Q9UEF7 34-981))
T1 construct: range 34-981; also called αKlotho (aa34-981); target antigen
T1 sequence: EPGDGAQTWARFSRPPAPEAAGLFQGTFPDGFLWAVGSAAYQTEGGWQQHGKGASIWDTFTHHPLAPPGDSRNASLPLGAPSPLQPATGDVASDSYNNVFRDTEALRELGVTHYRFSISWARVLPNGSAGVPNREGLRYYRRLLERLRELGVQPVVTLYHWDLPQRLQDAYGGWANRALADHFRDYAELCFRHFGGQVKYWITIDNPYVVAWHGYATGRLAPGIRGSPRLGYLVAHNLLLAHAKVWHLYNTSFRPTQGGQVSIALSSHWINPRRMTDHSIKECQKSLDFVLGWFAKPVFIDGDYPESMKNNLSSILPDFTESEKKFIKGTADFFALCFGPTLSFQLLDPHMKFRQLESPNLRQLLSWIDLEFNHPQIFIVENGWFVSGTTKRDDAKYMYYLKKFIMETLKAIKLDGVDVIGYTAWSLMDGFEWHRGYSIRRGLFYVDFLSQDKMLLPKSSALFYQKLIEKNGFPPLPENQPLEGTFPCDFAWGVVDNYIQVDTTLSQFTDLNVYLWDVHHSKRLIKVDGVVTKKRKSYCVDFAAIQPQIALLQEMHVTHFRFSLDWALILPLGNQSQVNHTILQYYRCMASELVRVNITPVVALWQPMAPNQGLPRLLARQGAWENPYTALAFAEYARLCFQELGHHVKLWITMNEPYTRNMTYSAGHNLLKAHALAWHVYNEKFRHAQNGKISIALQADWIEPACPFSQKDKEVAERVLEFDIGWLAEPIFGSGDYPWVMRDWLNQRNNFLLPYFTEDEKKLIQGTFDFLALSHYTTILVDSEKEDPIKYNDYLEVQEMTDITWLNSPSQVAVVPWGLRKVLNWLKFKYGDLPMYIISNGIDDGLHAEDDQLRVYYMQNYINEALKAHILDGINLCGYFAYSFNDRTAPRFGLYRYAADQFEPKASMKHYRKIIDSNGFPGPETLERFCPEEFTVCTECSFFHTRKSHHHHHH
Test: SPR, Fab captured by anti-H+L IgG, αKlotho injected at 50 to 6.25 ug/ml, Langmuir fit [continued]
Reported kon values for a set of binders
Reply numerically in M⁻¹ s⁻¹, unit not repeated.

binder="anti-αKlotho Fab clone 4817 (Fab, V domains shown, Fab (also as Fab-phage); FLAG tag on light chain; also called sb186) VH: EVQLVESGGGLVQPGGSLRLSCAASGFNFSSSSIHWVRQAPGKGLEWVASISSSYGYTYYADSVKGRFTISADTSKNTAYLQMNSLRAEDTAVYYCARGYPSSGAAWFWFSHPGSAMDYWGQGTLVTVSS VL: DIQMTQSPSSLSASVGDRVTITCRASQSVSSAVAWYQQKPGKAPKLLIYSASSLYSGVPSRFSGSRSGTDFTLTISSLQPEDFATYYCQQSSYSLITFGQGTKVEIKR" measurement_unit="M⁻¹ s⁻¹" assay_result=1.39e+06
binder="anti-αKlotho Fab clone 4829 (Fab, V domains shown, Fab (also as Fab-phage); FLAG tag on light chain; also called sb198) VH: EVQLVESGGGLVQPGGSLRLSCAASGFNISSYYIHWVRQAPGKGLEWVASIYSSYGYTSYADSVKGRFTISADTSKNTAYLQMNSLRAEDTAVYYCARYSWSPYWWWAYSGLDYWGQGTLVTVSS VL: DIQMTQSPSSLSASVGDRVTITCRASQSVSSAVAWYQQKPGKAPKLLIYSASSLYSGVPSRFSGSRSGTDFTLTISSLQPEDFATYYCQQGGGLITFGQGTKVEIKR" measurement_unit="M⁻¹ s⁻¹" assay_result=678000

The record that follows has no kon shown yet.
Problem: Name the recorded kon for anti-αKlotho Fab clone 4811 (Fab, V domains shown, Fab (also as Fab-phage); FLAG tag on light chain; also called sb180) VH: EVQLVESGGGLVQPGGSLRLSCAASGFNLYYSYMHWVRQAPGKGLEWVASIYSSSSYTSYADSVKGRFTISADTSKNTAYLQMNSLRAEDTAVYYCARSPSWWVSYHSALDYWGQGTLVTVSS VL: DIQMTQSPSSLSASVGDRVTITCRASQSVSSAVAWYQQKPGKAPKLLIYSASSLYSGVPSRFSGSRSGTDFTLTISSLQPEDFATYYCQQGYALFTFGQGTKVEIKR .
Result: 537000

The reported measurements were obtained from patent US20190041402A1.
